Reported pKi is given for each of the following compounds.
Assay System: N-acetyltransferase Eis (Mycobacterium tuberculosis (strain ATCC 25618 / H37Rv))
Sequence (P9WFK7 whole entry): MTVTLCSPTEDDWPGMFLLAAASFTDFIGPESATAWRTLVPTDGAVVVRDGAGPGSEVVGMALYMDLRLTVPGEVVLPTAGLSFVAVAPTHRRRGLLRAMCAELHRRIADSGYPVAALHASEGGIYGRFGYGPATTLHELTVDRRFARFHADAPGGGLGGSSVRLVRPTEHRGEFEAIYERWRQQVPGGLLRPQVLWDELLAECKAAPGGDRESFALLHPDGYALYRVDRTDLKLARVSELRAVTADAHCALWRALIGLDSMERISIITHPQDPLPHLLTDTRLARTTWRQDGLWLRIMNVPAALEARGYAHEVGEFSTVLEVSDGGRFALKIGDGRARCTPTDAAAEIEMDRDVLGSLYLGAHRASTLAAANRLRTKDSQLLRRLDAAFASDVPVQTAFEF
Test Description: Competitive inhibition of Mycobacterium tuberculosis Eis assessed as reduction in Eis-mediated kanamycin acetylation preincubated for 10 mins followed by substrate addition and measured for 2 to 5 mins using acetyl-CoA as substrate in presence of kanamycin by Lineweaver-Burk plot analysis
pKi: −log10 of the molar value.

- Smiles Structure: "O=C(CCCN1CCC(O)(c2ccc(F)cc2)CC1)c1ccc(F)cc1"
  pKi: 6.04
- Smiles Structure: "O=C(CCCN1CCC(O)(c2ccc(Cl)cc2)CC1)c1ccc(F)cc1"
  pKi: 6.41
- Smiles Structure: "O=C(CCCN1CCC(O)(c2ccc(Br)cc2)CC1)c1ccc(F)cc1"
  pKi: 6.62

----------
Test Description: Metabolic stability in human liver microsomes at 2 to 4 uM incubated for 30 mins by LC-MS/MS analysis
Format: ADME, Microsome
Run Conditions: dose 2-4 µM, read-out: Stability
Recorded Metric: remaining at 0.5 h (%)

- Smiles Structure: "CC(C)(C)c1ccc(C(=O)CCCN2CCC(O)(c3ccc(F)cc3)CC2)cc1"
  Numeric Value: 50
- Smiles Structure: "CC(C)(C)c1ccc(C(=O)CCCN2CCC(O)(c3ccc(Cl)cc3)CC2)cc1"
  Numeric Value: 60
- Smiles Structure: "O=C(CCCN1CC=C(c2ccc(Cl)cc2)CC1)c1ccc(F)cc1"
  Numeric Value: 30
- Smiles Structure: "CC(C)(C)c1ccc(C(=O)CCCN2CCC(O)(c3ccc(Br)cc3)CC2)cc1"
  Numeric Value: 56
- Smiles Structure: "O=C(CCCN1CCC(O)(c2ccc(Br)cc2)CC1)c1ccc(Cl)cc1"
  Numeric Value: 36
